List of pIC50 values.
Target: Integrin alpha-V/beta-3 (Homo sapiens, UniProt P05106+P06756)
Sequence (P05106 27-788 limits assumed): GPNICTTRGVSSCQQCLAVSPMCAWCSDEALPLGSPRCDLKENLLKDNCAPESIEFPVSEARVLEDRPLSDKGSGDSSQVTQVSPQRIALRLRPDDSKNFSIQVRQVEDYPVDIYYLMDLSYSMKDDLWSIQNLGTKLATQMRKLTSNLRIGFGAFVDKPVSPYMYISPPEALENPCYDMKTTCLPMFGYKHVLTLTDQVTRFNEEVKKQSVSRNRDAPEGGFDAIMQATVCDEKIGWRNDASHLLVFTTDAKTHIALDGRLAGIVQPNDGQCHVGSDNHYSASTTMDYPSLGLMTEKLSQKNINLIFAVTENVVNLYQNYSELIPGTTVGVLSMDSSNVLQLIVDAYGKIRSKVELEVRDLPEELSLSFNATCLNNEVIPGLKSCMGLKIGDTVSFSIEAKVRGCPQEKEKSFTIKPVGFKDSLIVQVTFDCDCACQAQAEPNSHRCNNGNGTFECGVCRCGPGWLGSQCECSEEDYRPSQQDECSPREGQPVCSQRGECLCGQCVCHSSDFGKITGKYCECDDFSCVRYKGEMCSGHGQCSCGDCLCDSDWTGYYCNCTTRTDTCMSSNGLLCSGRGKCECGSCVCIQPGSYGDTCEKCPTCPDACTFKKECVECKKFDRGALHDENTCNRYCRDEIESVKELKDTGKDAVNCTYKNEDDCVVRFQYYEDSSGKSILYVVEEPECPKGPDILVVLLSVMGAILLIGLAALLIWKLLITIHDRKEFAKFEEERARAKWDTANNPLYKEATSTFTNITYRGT
Sequence (P06756 31-889 limits assumed): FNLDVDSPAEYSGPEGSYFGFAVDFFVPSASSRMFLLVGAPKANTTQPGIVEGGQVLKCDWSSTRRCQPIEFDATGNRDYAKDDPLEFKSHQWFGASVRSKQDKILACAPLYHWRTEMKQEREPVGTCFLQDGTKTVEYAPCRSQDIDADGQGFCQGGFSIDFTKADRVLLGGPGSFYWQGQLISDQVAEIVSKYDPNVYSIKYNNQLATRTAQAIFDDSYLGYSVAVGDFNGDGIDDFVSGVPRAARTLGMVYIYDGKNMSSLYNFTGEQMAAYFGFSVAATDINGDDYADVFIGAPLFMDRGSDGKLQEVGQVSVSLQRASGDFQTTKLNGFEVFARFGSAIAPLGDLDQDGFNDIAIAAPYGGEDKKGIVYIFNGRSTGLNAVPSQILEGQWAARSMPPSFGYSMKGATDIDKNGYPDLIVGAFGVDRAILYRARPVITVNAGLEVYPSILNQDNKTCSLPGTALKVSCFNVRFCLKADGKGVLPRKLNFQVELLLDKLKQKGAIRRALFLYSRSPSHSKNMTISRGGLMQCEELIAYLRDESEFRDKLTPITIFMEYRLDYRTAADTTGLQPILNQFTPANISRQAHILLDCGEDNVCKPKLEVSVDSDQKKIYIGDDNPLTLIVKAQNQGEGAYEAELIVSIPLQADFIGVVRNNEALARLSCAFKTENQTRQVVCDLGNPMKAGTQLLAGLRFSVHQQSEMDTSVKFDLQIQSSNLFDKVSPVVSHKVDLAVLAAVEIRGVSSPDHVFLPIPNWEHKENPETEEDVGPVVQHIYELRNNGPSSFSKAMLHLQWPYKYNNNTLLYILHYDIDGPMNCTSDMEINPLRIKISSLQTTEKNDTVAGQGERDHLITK
Sequence (P06756 891-1048 limits assumed): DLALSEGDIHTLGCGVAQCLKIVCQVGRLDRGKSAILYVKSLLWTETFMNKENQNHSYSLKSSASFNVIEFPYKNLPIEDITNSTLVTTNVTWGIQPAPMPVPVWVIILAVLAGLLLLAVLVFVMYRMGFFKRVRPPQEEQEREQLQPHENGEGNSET
Assay: Displacement of [125I]echistatin from human integrin alphaVbeta3
pIC50: −log10 of the molar value.

In [3]: df
Out[3]:
                           smiles_structure  endpoint_result
0  NC(N)=NCc1cn(CC(=O)N(CC(=O)O)c2ccccc2)nn1           < 5.00

### Prompt Name the reported pIC50 value associated with the compound N=C(N)N1CCN(CCc2cn(CC(=O)N(CC(=O)O)c3ccccc3)nn2)CC1
### Response < 5.00

### Prompt # input compound: NC(N)=NCCCc1cn(CC(=O)N(CC(=O)O)c2ccccc2)nn1 ; wanted: its pIC50
### Response < 5.00

### Prompt Need pIC50 of N=C(N)NCCc1cn(CC(=O)N(CC(=O)O)c2ccccc2)nn1 , thanks.
### Response < 5.00
